# Tgt: TRPML2 (Homo sapiens)
# Construct: expressed in transfected cells
# Assay remarks: Fluorescent TRPML2 assay (performed as for TRPML1, substituting the TRPML2 subtype)
# Assay type: cell-based
pEC50: −log10 of the molar value.
Measured metric: pEC50

Record excerpt, results attached:
Cc1cn(-c2cc(F)cc(Cl)c2)c2ncnc(N3CCN(C(=O)OC(C)(C)C)C[C@@H]3C)c12 6.30 to 7.00
C#Cc1ccnc(-n2cc(C3CC3)c3c(N4C[C@@H](C)N(C(=O)OC(C)(C)C)C[C@@H]4C)ncnc32)c1 > 7.00
C[C@@H]1CN(c2ncnc3c2c(C2CC2)cn3-c2cccc(Cl)c2)[C@@H](C)CN1C(=O)OC1(C)CC1 < 5.70

Give me pEC50 for each of these compounds, listed below.
1. Cc1cn(-c2cc(F)cc(F)c2)c2ncnc(N3C[C@@H](C)N(C(=O)OC(C)(C)C)C[C@@H]3C)c12
2. C[C@@H]1CN(c2ncnc3c2c(C(F)F)cn3-c2cc(C#N)ccn2)CCN1C(=O)OC(C)(C)C

["5.70 to 6.30", "> 7.00"]

---

# Tgt: TRPML2 (Homo sapiens, UniProt Q8IZK6)
# Construct: expressed in transfected cells
# Assay remarks: Fluorescent TRPML2 assay (performed as for TRPML1, substituting the TRPML2 subtype)
# Assay type: cell-based
# Setup conditions: fluorescent calcium assay
Measured metric: EC50

Record excerpt, results attached:
C[C@H]1CN(C(=O)OC(C)(C)C)CCN1c1ncnc2c1c(C1CC1)cn2-c1ccc(Cl)cc1 < 100 nM
C[C@H]1CN(C(=O)OCC(F)(F)F)CCN1c1ncnc2c1c(-c1ccccc1F)cn2-c1cc(C#N)ccn1 < 100 nM
C[C@@H]1CN(C(=O)OC(C)(C)C)CCN1c1ncnc2c1c(C1CCOCC1)cn2-c1cccc(F)c1 500 to 2000 nM

Note: attention shifts to another entry.
I would be grateful if you could share the reported EC50 for Cc1nccnc1-c1cn(-c2ccc(F)c(F)c2)c2ncnc(N3C[C@@H](C)N(C(=O)OC(C)(C)C)C[C@@H]3C)c12 .
500 to 2000 nM

---

# Tgt: TRPML3 (Homo sapiens, UniProt Q8TDD5)
# Construct: expressed in transfected cells
# Sequence (Q8TDD5 whole entry): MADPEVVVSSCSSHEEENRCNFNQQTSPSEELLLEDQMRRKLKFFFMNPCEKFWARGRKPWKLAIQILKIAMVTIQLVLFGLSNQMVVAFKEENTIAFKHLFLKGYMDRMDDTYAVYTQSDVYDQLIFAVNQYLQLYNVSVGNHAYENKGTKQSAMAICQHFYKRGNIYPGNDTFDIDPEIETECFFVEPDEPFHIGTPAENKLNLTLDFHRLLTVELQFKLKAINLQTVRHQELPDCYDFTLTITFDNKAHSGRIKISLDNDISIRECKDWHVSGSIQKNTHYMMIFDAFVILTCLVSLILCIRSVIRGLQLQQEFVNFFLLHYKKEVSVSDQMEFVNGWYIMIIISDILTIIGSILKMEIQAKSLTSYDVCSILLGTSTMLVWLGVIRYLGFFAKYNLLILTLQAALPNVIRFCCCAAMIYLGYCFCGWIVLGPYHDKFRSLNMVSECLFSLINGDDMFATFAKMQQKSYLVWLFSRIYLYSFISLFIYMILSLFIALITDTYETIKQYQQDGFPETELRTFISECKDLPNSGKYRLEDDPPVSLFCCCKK
# Assay remarks: Fluorescent TRPML3 assay (performed as for TRPML1, substituting the TRPML3 subtype)
# Format: cell-based
# Setup conditions: fluorescent calcium assay
Answer each item with its documented EC50.

Compound	Measured metric	Data value
C[C@H]1CN(C(=O)OC(C)(C)C)CCN1c1ncnc2c1c(N1CCCC1)cn2-c1cc(C#N)ccn1	EC50	< 100 nM
COc1cc(C#N)cc(-n2cc(C3CC3)c3c(N4CCN(C(=O)OC(C)(C)C)C[C@@H]4C)ncnc32)c1	EC50	100 to 500 nM
CC(C)(C)OC(=O)N1CCN(c2ncnc3c2c(-c2ccccc2F)cn3-c2nccc(C#N)n2)CC1	EC50	< 100 nM
C[C@H]1CN(C(=O)OC(C)(C)C)CCN1c1ncnc2c1c(N1CCCC1)cn2-c1cccc(OC(F)(F)F)c1	EC50	< 100 nM

Give me EC50 for each of these compounds, listed below.
1. C[C@@H]1CN(c2ncnc3c2c(-c2ccccc2F)cn3-c2nccc(C#N)n2)[C@@H](C)CN1C(=O)OC(C)(C)C
2. C[C@H]1CN(C(=O)OC(C)(C)C)CCN1c1ncnc2c1c(-c1ccccc1)cn2-c1cnn(C)c1
3. Cc1cc(C#N)cc(-n2cc(-c3ccccc3F)c3c(N4CCN(C(=O)OC(C)(C)C)C[C@@H]4C)ncnc32)n1
4. C[C@H]1CN(C(=O)OC(C)(C)C)CCN1c1ncnc2c1c(C1CC1)cn2-c1cc(F)cc(F)c1
5. CC(C)(C)OC(=O)N1CCN(c2ncnc3c2c(-c2ccccc2F)cn3-c2cc(C#N)ccn2)C2CC21 (stereo not shown)
6. CCc1cn(-c2cc(C#N)ccn2)c2ncnc(N3CCN(C(=O)OC(C)(C)C)C[C@@H]3C)c12
7. C[C@@H]1CN(c2ncnc3c2c(N2CCCC2)cn3-c2cc(F)cc(F)c2)CCN1C(=O)OC(C)(C)C
8. Cc1nccnc1-c1cn(-c2cc(C#N)ccn2)c2ncnc(N3C[C@@H](C)N(C(=O)OC(C)(C)C)C[C@@H]3C)c12

1: < 100 nM; 2: < 100 nM; 3: < 100 nM; 4: < 100 nM; 5: < 100 nM; 6: < 100 nM; 7: 100 to 500 nM; 8: 100 to 500 nM

Give me EC50 for each of these compounds, listed below.
1. C[C@H]1CN(C(=O)OC(C)(C)C)CCN1c1ncnc2c1c(N1CCCCC1)cn2-c1cccc(Cl)c1
2. C[C@H]1CN(C(=O)OC(C)(C)C)CCN1c1ncnc2c1c(C1CC1)cn2-c1cccc(F)c1F
3. Cc1nccnc1-c1cn(-c2cc(F)cc(F)c2)c2ncnc(N3CCN(C(=O)OC(C)C)[C@H](C)C3)c12
4. CCOC(=O)N1C[C@H](C)N(c2ncnc3c2c(-c2cccnc2)cn3-c2cccc(Cl)c2)C[C@H]1C
5. COc1cccc(-n2cc(C3CC3)c3c(N4CCN(C(=O)OC(C)(C)C(F)(F)F)C[C@@H]4C)ncnc32)c1
6. C[C@@H]1CN(c2ncnc3c2c(C2CC2)nn3-c2cc(F)cc(F)c2)CCN1C(=O)OC(C)(C)C
7. CC(C)OC(=O)N1CCN(c2ncnc3c2c(-c2ccccc2F)cn3-c2cc(C#N)ccn2)[C@@H](C)C1
8. CCN(CC)c1cn(-c2cc(C#N)ccn2)c2ncnc(N3CCN(C(=O)OC(C)(C)C)CC3)c12

1: < 100 nM; 2: 100 to 500 nM; 3: 500 to 2000 nM; 4: 500 to 2000 nM; 5: 100 to 500 nM; 6: < 100 nM; 7: < 100 nM; 8: 100 to 500 nM

Give me EC50 for each of these compounds, listed below.
1. C[C@H]1CN(C(=O)OC(C)(C)C)CCN1c1ncnc2c1c(N1CCCC1)cn2-c1cc(Cl)cc(C#N)c1
2. CC(C)(C)OC(=O)N1CCN(c2ncnc3c2c(-c2ccccc2F)cn3-c2cc(C#N)ccn2)C(C)(C)C1

1: < 100 nM; 2: < 100 nM

---

Answer each item with its documented pEC50.
# Tgt: TRPML2 (Homo sapiens)
# Construct: expressed in transfected cells
# Sequence (Q8IZK6 1-566): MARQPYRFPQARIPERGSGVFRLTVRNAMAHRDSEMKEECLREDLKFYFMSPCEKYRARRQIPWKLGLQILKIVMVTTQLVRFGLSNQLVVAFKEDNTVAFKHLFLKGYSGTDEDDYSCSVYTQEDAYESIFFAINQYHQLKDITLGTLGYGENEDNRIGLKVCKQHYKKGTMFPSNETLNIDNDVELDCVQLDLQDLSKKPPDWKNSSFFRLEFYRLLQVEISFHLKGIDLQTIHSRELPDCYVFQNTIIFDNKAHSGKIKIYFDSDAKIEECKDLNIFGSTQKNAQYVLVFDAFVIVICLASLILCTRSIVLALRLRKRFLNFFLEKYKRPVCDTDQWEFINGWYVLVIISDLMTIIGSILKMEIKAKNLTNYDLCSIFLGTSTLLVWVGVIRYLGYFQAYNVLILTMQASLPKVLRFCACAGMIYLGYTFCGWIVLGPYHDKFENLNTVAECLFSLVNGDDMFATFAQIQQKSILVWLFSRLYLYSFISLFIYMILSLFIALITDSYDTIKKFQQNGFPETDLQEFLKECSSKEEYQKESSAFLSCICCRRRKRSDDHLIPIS
# Assay remarks: Fluorescent TRPML2 assay (performed as for TRPML1, substituting the TRPML2 subtype)
# Type: cell-based
# Setup conditions: fluorescent calcium assay
pEC50: −log10 of the molar value.

C[C@H]1CN(C(=O)OC(C)(C)C)CCN1c1ncnc2c1c(N1CCC1)cn2-c1cccc(Cl)c1 > 7.00
C[C@H]1CN(C(=O)OC(C)(C)C)CCN1c1ncnc2c1c(-c1ccccn1)cn2-c1cc(F)cc(F)c1 6.30 to 7.00
C[C@H]1CN(C(=O)OC(C)(C)C)CCN1c1ncnc2c1c(C(C)(C)O)cn2-c1cc(C#N)ccn1 6.30 to 7.00

Give me pEC50 for each of these compounds, listed below.
1. CC(C)(C)OC(=O)N1CCN(c2ncnc3c2c(C2CC2)cn3-c2ccc(Cl)c(F)c2)CC1
2. Cc1nccnc1-c1cn(-c2cccc(Cl)c2)c2ncnc(N3C[C@@H](C)N(C(=O)OC(C)(C)C)C[C@@H]3C)c12

1. > 7.00
2. 6.30 to 7.00

I would be grateful if you could share the reported pEC50 for C[C@H]1CN(C(=O)OC(C)(C)C)CCN1c1ncnc2c1c(C1=CCOCC1)cn2-c1cc(F)cc(F)c1 .
5.70 to 6.30

---

# Tgt: TRPML3 (Homo sapiens, UniProt Q8TDD5)
# Construct: expressed in transfected cells
# Assay remarks: Fluorescent TRPML3 assay (performed as for TRPML1, substituting the TRPML3 subtype)
# Format: cell-based
# Setup conditions: fluorescent calcium assay
pEC50: −log10 of the molar value.
Answer each item with its documented pEC50.

Record excerpt, results attached:
Compound	Tgt	pEC50
Cc1nccnc1-c1cn(-c2cc(F)c(F)c(F)c2)c2ncnc(N3CCN(C(=O)OC(C)(C)C)C[C@@H]3C)c12 [Compound 305]	TRPML3 (Homo sapiens, UniProt Q8TDD5)	6.30 to 7.00
Cc1nccnc1-c1cn(-c2ccc(Cl)cc2)c2ncnc(N3C[C@@H](C)N(C(=O)OC(C)(C)C)C[C@@H]3C)c12 [Compound 184]	TRPML3 (Homo sapiens, UniProt Q8TDD5)	6.30 to 7.00
C[C@H]1CN(C(=O)OC(C)(C)C)CCN1c1ncnc2c1c(-c1ccncc1F)cn2-c1cc(C#N)ccn1 [Compound 355]	TRPML3 (Homo sapiens, UniProt Q8TDD5)	> 7.00
C[C@H]1CN(C(=O)OC(C)(C)C)CCN1c1ncnc2c1c(C1CCOCC1)nn2-c1ccccc1 [Compound 261]	TRPML3 (Homo sapiens, UniProt Q8TDD5)	5.70 to 6.30
CC(C)(C)OC(=O)N1CCN(c2ncnc3c2c(C2CC2)cn3-c2ccc(Cl)cc2)CC1 [Compound 107]	TRPML3 (Homo sapiens, UniProt Q8TDD5)	> 7.00
C[C@H]1CN(C(=O)OC(C)(C)C)CCN1c1ncnc2c1c(-c1ccccc1F)cn2-c1cc(C#N)cnn1 [Compound 447]	TRPML3 (Homo sapiens, UniProt Q8TDD5)	> 7.00
C[C@H]1CN(C(=O)OC(C)(C)C)CCN1c1ncnc2c1c(C1(C)CC1)cn2-c1cc(C#N)ccn1 [Compound 411]	TRPML3 (Homo sapiens, UniProt Q8TDD5)	> 7.00

Note: attention shifts to another entry.
I would be grateful if you could share the reported pEC50 for C[C@@H]1CN(c2ncnc3c2c(-c2ccccc2F)cn3-c2ccccn2)CCN1C(=O)OC(C)(C)C [Compound 192] .
> 7.00

Origin of the recorded values: patent US20250136606A1
